Listed here are compounds together with their documented pEC50.
Molecular target: TGR5 (NCI-H716 cell line) (Homo sapiens)
Sequence (Q8TDU6 1-330): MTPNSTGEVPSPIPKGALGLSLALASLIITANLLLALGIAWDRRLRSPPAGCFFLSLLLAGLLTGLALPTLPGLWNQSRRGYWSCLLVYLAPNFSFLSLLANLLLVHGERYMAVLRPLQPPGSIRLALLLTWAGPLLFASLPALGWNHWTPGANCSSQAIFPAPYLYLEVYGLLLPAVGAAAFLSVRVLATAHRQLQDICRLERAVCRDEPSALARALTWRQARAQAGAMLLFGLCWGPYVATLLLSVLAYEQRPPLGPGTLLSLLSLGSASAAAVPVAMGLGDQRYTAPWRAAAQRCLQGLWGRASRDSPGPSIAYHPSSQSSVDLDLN
Experiment: NCI-H716 cAMP Agonist EC50 Determination
Where a name gives a salt, the structure may show the parent alone.
Quick note: pEC50 means taking -log10 of the concentration in moles per liter.

> print(dat)
                                   compound                       experimental.target  reported.endpoint  reported.result
1  COc1cc(C2CCCc3nc(SCc4c(F)ccc(OCCOCCN(C)C)c4F)n(-c4ccc(F)cc4)c32)ccc1Cl (stereo not shown) [Example 35, hydrochloride]  TGR5 (NCI-H716 cell line) (Homo sapiens)              pEC50             5.03
2  COc1cccc(C2CCCc3nc(SCc4c(F)cncc4F)n(-c4ccc(F)c(OC)c4)c32)c1 (stereo not shown)  TGR5 (NCI-H716 cell line) (Homo sapiens)              pEC50             4.45
3  COc1ccc(C2CCCc3nc(SCc4c(F)cc(OCCCl)cc4F)n(-c4ccc(F)cc4)c32)cc1OC (stereo not shown)  TGR5 (NCI-H716 cell line) (Homo sapiens)              pEC50             5.08

**Q:** Need pEC50 of COc1cc(C2CCCc3nc(SCc4c(F)cc(CC/C=N/NC(=N)N)cc4F)n(-c4ccc(F)cc4)c32)ccc1Cl (stereo not shown) [Example 47, hydrochloride] , thanks.
**A:** 4.33

###

target: TGR5 (STC1 cell line) (Mus musculus, UniProt Q80SS6); test: STC1 cAMP Agonist EC50 Determination
Reported Endpoint: EC50 (nM)
Field: numeric (nM). Do not append units.

> print(dat)
                                   compound  reported.result
1  COc1cc(C2OCCc3nc(SCc4c(F)cc(OCCOCCOCCCl)cc4F)n(-c4ccc(F)cc4)c32)ccc1Cl (stereo not shown)             6070
2  COc1cc(C2(C)CCCc3nc(SCc4ncncc4Cl)n(-c4ccc(F)cc4)c32)ccc1Cl (stereo not shown)             2220
3  CCO/C=C/c1cc(F)c(CSc2nc3c(n2-c2ccc(F)cc2)C(C)(c2ccc(OC)c(OC)c2)CCC3)c(F)c1 (stereo not shown)              450

**Q:** Which EC50 value belongs to COc1cc(C2CCCc3nc(SCc4c(F)cc(S(N)(=O)=O)cc4F)n(-c4ccc(F)cc4)c32)ccc1Cl (stereo not shown) [Example 21a] ?
**A:** 690

###

Target: TGR5 (STC1 cell line) (Mus musculus, UniProt Q80SS6)
Sequence (Q80SS6 1-329): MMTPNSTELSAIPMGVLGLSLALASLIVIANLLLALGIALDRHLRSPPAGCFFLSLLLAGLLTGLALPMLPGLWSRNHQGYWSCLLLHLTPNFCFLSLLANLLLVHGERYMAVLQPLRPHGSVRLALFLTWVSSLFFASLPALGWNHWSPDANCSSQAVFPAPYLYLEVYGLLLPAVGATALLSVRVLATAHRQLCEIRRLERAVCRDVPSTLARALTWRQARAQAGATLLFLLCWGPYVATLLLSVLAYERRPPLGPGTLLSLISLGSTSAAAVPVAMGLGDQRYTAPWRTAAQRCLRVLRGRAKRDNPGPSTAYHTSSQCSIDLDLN
Assay: STC1 cAMP Agonist EC50 Determination
Counter-ions that a name gives are not always drawn.
Parameter pEC50: see the listing below.
# pEC50 is unitless: minus log10 of the molar concentration; print number only

Compound	Experimental Target	Reported Result
COc1cc(C2(C)CCCc3nc(SCc4c(F)cc(C(=O)O)cc4F)n(-c4ccc(F)cc4)c32)ccc1F (stereo not shown)	TGR5 (STC1 cell line) (Mus musculus, UniProt Q80SS6)	5.93

**Q:** # input compound: COc1cc(C2CCCc3nc(SCc4c(Cl)cncc4Cl)n(-c4ccc(F)cc4)c32)ccc1Cl (stereo not shown) ; wanted: its pEC50
**A:** 5.36

**Q:** Field entry: COc1cc(C2CCCc3nc(SCc4c(F)cncc4Br)n(-c4ccc(F)cc4)c32)ccc1Cl (stereo not shown)
**A:** 6.89

**Q:** Also check COCCNC(=O)c1cc(F)c(CSc2nc3c(n2-c2ccc(F)cc2)C(C)(c2ccc(F)c(OC)c2)CCC3)c(F)c1 (stereo not shown)
**A:** 6.10

**Q:** Queued: CCOC(=O)CCc1cc(F)c(CSc2nc3c(n2-c2ccc(F)cc2)C(c2ccc(Cl)c(OC)c2)CCC3)c(F)c1 (stereo not shown)
**A:** 5.87

**Q:** Moving on to C/N=C(\N)NCCCc1cc(F)c(CSc2nc3c(n2-c2ccc(F)cc2)C(c2ccc(Cl)c(OC)c2)CCC3)c(F)c1 (stereo not shown) [Example 39a, hydrochloride]
**A:** 6.44

**Q:** COc1cc(C2(C)CCCc3nc(SCc4c(F)cc(C(=O)N5CCOCC5)cc4F)n(-c4ccc(F)cc4)c32)ccc1Cl (stereo not shown) , same question.
**A:** 6.60

**Q:** Same lookup for COc1cc(C2CCCc3nc(SCc4c(F)ccc(OCCOCCOCCN(C)C)c4F)n(-c4ccc(F)cc4)c32)ccc1Cl (stereo not shown) [Example 32, hydrochloride] , please.
**A:** 5.86

**Q:** Lookup COc1cc(C2CCCc3nc(SCc4c(F)cc(CCCNC(=N)N)cc4F)n(-c4ccc(F)cc4)c32)ccc1Cl (stereo not shown)
**A:** 6.28

**Q:** And what about the compound COc1cc(C2CCCc3nc(SCc4c(F)cc(S(=O)(=O)NS(C)(=O)=O)cc4F)n(-c4ccc(F)cc4)c32)ccc1Cl (stereo not shown) [Example 21b] ?
**A:** 5.09

**Q:** Field entry: COc1cc(C2CCCc3nc(SCc4c(F)c[n+]([O-])cc4F)n(-c4ccc(F)cc4)c32)ccc1Cl (stereo not shown)
**A:** 5.69

**Q:** // repeat for COc1cc(C2CCCc3nc(SCc4c(F)cc(C#N)cc4F)n(-c4ccc(F)cc4)c32)ccc1Cl (stereo not shown) and report
**A:** 5.87

**Q:** Param item: COc1cc(C2CCCc3nc(SCc4c(F)cccc4Cl)n(-c4cc(F)c(F)cc4F)c32)ccc1Cl (stereo not shown)
**A:** 5.43

###

Target: TGR5 (NCI-H716 cell line) (Homo sapiens)
Sequence (Q8TDU6 1-330): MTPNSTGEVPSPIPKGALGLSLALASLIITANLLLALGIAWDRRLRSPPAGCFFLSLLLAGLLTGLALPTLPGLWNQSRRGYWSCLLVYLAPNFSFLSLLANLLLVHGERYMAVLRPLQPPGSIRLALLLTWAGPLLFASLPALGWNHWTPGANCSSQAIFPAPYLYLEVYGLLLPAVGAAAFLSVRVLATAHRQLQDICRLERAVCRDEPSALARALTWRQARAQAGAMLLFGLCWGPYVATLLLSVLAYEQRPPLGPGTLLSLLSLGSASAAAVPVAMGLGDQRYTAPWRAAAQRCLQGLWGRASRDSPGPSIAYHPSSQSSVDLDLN
Experiment: NCI-H716 cAMP Agonist EC50 Determination
Where a name gives a salt, the structure may show the parent alone.
Reported Endpoint: EC50 (µM)
Quick note: give the figure in µM, leave out the unit.

Some compounds with recorded EC50:
> print(dat)
                                   compound  reported.endpoint  reported.result
1  COc1ccc(C2(C)CCCc3nc(SCc4c(F)cccc4[N+](=O)[O-])n(-c4ccc(F)cc4)c32)cc1OC (stereo not drawn)               EC50              2.6
2  COc1cc(C2(C)CCCc3nc(SCc4c(F)cc(C(=O)NCCOCCOCCOCCO)cc4F)n(-c4ccc(F)cc4)c32)ccc1F (stereo not drawn)               EC50               17
3  COc1ccc(C2(C)CCCc3nc(SCc4c(F)cc(Br)cc4F)n(-c4ccc(F)cc4)c32)cc1OC (stereo not drawn)               EC50              3.6

Let us move to another entry and its EC50.
**Q:** Query (compound): COc1cc(C2CCCc3nc(SCc4c(F)ccc(OCCOCCOCCN(C)C)c4F)n(-c4ccc(F)cc4)c32)ccc1Cl (stereo not drawn) [Example 32, hydrochloride] ; field requested: EC50
**A:** 16.9
